Here, each record is paired with measured MCH-5 k3/Ki data.
# Experimental target: MCH-5 (Homo sapiens, UniProt Q14790)
# Sequence (Q14790 217-374 limits assumed, species assumed): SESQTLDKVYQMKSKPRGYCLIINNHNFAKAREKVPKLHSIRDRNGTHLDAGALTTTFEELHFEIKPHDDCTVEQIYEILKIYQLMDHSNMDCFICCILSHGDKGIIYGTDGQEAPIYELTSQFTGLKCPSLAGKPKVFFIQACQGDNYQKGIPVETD
# Sequence (Q14790 385-479 limits assumed, species assumed): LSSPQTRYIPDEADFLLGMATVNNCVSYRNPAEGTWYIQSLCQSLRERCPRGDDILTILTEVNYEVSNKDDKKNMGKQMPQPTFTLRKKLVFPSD
# Protocol summary: Dissociation constant Ki and irreversible rate constant k3 for irreversible inhibitors, Mch5
# Assay type: biochemical
# Assay context: continuous assay 60 min, reaction initiated by adding enzyme
# Text: For the irreversible inhibition of a ICE/ced-3 Family Protease enzyme with a competitive irreversible inhibitor; using the model represented by the following formulas: […] The product formation at time t may be expressed as: [formula] where E, I, EI and E-I denote the active enzyme, inhibitor, non-covalent enzyme-inhibitor complex and covalent enzyme-inhibitor adduct, respectively. […]

The cases that follow already have their MCH-5 k3/Ki on record.
1. CC(C)C[C@H](NC(=O)COc1ccccc1-c1ccccc1)C(=O)N[C@@H](CC(=O)O)C(=O)COC(=O)c1c(Cl)cccc1Cl	5,290 M^−1s^−1
2. CC(C)[C@H](NC(=O)CCOc1cccc2ccccc12)C(=O)NC(CC(=O)O)C(=O)CF (mixture of isomers)	20,400 M^−1s^−1

Respond only with MCH-5 k3/Ki recorded for CC(C)[C@H](NC(=O)COc1cccc2ccccc12)C(=O)N[C@@H](CC(=O)O)C(=O)COc1ccccc1F 230 M⁻¹ s⁻¹

Respond only with MCH-5 k3/Ki recorded for O=C(O)CC(NC(=O)[C@@H]1Cc2ccccc2CN1C(=O)COc1cccc2ccccc12)C(=O)CF (mixture of isomers) 5,780 M^−1s^−1

Respond only with MCH-5 k3/Ki recorded for O=C(O)CC(NC(=O)[C@@H]1CCCCN1C(=O)COc1cccc2ccccc12)C(=O)CF (some centres unmarked) 17,600 M^−1s^−1

Respond only with MCH-5 k3/Ki recorded for O=C(O)CC(NC(=O)[C@@H]1Cc2ccccc2N1C(=O)COc1cccc2ccccc12)C(=O)CF (some centres unmarked) 10,100 M^−1s^−1

Respond only with MCH-5 k3/Ki recorded for CC(C)[C@H](NC(=O)COc1cccc2ccccc12)C(=O)N[C@@H](CC(=O)O)C(=O)COc1cc(F)cc(F)c1 150 M⁻¹ s⁻¹

Respond only with MCH-5 k3/Ki recorded for CC(C)[C@H](NC(=O)COc1cccc2ccccc12)C(=O)N[C@@H](CC(=O)O)C(=O)COP(=O)(c1ccccc1)c1ccccc1 59,300 M^−1s^−1

Respond only with MCH-5 k3/Ki recorded for CC(C)[C@H](NC(=O)CCOc1cccc2ccccc12)C(=O)N[C@@H](CC(=O)O)C(=O)COC(=O)c1c(Cl)cccc1Cl 1,610 M^−1s^−1

Respond only with MCH-5 k3/Ki recorded for CC(C)[C@H](NC(=O)COc1ccc2ccccc2c1)C(=O)N[C@@H](CC(=O)O)C(=O)COC(=O)c1c(Cl)cccc1Cl 7,910 M^−1s^−1

Respond only with MCH-5 k3/Ki recorded for CC(C)[C@H](NC(=O)COc1cccc2ccccc12)C(=O)N[C@@H](CC(=O)O)C(=O)COc1cccc(F)c1F 200 M⁻¹ s⁻¹

Respond only with MCH-5 k3/Ki recorded for CC(C)[C@H](NC(=O)COc1ccccc1-c1ccccc1)C(=O)N[C@@H](CC(=O)O)C(=O)COc1c(F)cc(F)cc1F 5,900 M^−1s^−1

Respond only with MCH-5 k3/Ki recorded for Cc1nnc(SCC(=O)[C@H](CC(=O)O)NC(=O)[C@@H](NC(=O)COc2cccc3ccccc23)C(C)C)s1 0 M⁻¹ s⁻¹

Respond only with MCH-5 k3/Ki recorded for CC(C)[C@H](NC(=O)COc1cccc2ccccc12)C(=O)N[C@@H](CC(=O)O)C(=O)COc1c(F)ccc(F)c1F 17,000 M^−1s^−1

Respond only with MCH-5 k3/Ki recorded for CC(C)[C@H](NC(=O)COc1cccc2ccccc12)C(=O)N[C@@H](CC(=O)O)C(=O)COc1c(F)cccc1F 9,100 M^−1s^−1

Respond only with MCH-5 k3/Ki recorded for CC(C)[C@H](NC(=O)COc1cccc2ccccc12)C(=O)N[C@@H](CC(=O)O)C(=O)COc1cc(C(F)(F)F)nn1-c1ccccc1 14,500 M^−1s^−1

Respond only with MCH-5 k3/Ki recorded for CC(C)C[C@H](NC(=O)COc1c(C(=O)O)ccc2ccccc12)C(=O)N[C@@H](CC(=O)O)C(=O)COC(=O)c1c(Cl)cccc1Cl 13,100 M^−1s^−1

Respond only with MCH-5 k3/Ki recorded for CCCCCCP(=O)(OCC(=O)[C@H](CC(=O)O)NC(=O)[C@@H](NC(=O)COc1cccc2ccccc12)C(C)C)c1ccccc1 (some centres unmarked) 10,500 M^−1s^−1

Respond only with MCH-5 k3/Ki recorded for C[C@H](NC(=O)COc1ccc2ccccc2c1)C(=O)NC(CC(=O)O)C(=O)COc1c(F)c(F)cc(F)c1F (some centres unmarked) 684 M⁻¹ s⁻¹

Respond only with MCH-5 k3/Ki recorded for CC(C)[C@H](NC(=O)COc1cccc2ccccc12)C(=O)N[C@@H](CC(=O)O)C(=O)COC(=O)c1c(Cl)cccc1Cl 17,000 M^−1s^−1

Respond only with MCH-5 k3/Ki recorded for CC(C)[C@H](NC(=O)COc1cccc2ccccc12)C(=O)N[C@@H](CC(=O)O)C(=O)COP(C)(C)=O 3,700 M^−1s^−1

Respond only with MCH-5 k3/Ki recorded for CC(C)C[C@H](NC(=O)COc1ccccc1-c1ccccc1)C(=O)N[C@@H](CC(=O)O)C(=O)COc1c(F)cc(F)cc1F 7,960 M^−1s^−1

Respond only with MCH-5 k3/Ki recorded for CC(C)[C@H](NC(=O)COc1cccc2ccccc12)C(=O)N[C@@H](CC(=O)O)C(=O)COc1ccnc(C(F)(F)F)n1 3,200 M^−1s^−1

Respond only with MCH-5 k3/Ki recorded for CC(C)[C@H](NC(=O)COc1cccc2ccccc12)C(=O)N[C@@H](CC(=O)O)C(=O)COc1c(F)c(F)cc(F)c1F 30,200 M^−1s^−1

Respond only with MCH-5 k3/Ki recorded for CC(C)[C@H](NC(=O)COc1cccc2ccccc12)C(=O)N[C@@H](CC(=O)O)C(=O)COc1ccc(F)c(F)c1F 770 M⁻¹ s⁻¹

Respond only with MCH-5 k3/Ki recorded for CC(C)[C@H](NC(=O)COc1cccc2ccccc12)C(=O)N[C@@H](CC(=O)O)C(=O)COP(C)(=O)c1cccc2ccccc12 (some centres unmarked) 18,800 M^−1s^−1

###

# Experimental target: MCH-2 (Homo sapiens, UniProt P55212)
# Sequence (P55212 24-179 limits assumed): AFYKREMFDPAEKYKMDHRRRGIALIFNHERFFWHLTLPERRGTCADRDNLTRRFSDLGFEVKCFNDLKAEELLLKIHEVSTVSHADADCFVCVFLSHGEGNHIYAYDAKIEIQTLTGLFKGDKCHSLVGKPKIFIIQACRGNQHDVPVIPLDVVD
# Sequence (P55212 194-293 limits assumed): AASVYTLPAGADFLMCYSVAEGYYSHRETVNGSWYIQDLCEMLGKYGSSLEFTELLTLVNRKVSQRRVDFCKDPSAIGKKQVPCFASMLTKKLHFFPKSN
# Protocol summary: Dissociation constant Ki and irreversible rate constant k3 for irreversible inhibitors, Mch2
# Assay type: biochemical
# Assay context: continuous assay 60 min, reaction initiated by adding enzyme
Measure: MCH-2 k3/Ki

1) Cc1cc(OCC(=O)[C@H](CC(=O)O)NC(=O)[C@@H](NC(=O)COc2cccc3ccccc23)C(C)C)cc(=O)o1	230 M⁻¹ s⁻¹
2) CC(C)C[C@H](NC(=O)COc1ccccc1-c1ccccc1)C(=O)N[C@@H](CC(=O)O)C(=O)COc1c(F)cc(F)cc1F	110,000 M^−1s^−1
3) CC(C)C[C@H](NC(=O)COc1c(C(=O)O)ccc2ccccc12)C(=O)N[C@@H](CC(=O)O)C(=O)COC(=O)c1c(Cl)cccc1Cl	116,000 M^−1s^−1
4) CC(C)C[C@H](NC(=O)COc1c(C(=O)O)ccc2ccccc12)C(=O)N[C@@H](CC(=O)O)C(=O)COP(=O)(c1ccccc1)c1ccccc1	146,000 M^−1s^−1
5) COC(=O)c1cc(OCC(=O)[C@H](CC(=O)O)NC(=O)[C@@H](NC(=O)COc2cccc3ccccc23)C(C)C)no1	5,800 M^−1s^−1

Attention now shifts to the item below.
Respond only with MCH-2 k3/Ki recorded for CC(C)[C@H](NC(=O)COc1cccc2ccccc12)C(=O)N[C@@H](CC(=O)O)C(=O)COc1ccnc(C(F)(F)F)n1 5,150 M^−1s^−1

###

# Experimental target: mICE (Mus musculus)
# Sequence (P29452 123-296 limits assumed): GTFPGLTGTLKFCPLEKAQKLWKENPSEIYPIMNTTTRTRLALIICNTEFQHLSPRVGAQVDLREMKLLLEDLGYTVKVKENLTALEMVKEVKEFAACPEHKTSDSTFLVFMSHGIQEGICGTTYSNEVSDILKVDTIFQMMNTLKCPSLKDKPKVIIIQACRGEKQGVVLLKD
# Sequence (P29452 315-402 limits assumed): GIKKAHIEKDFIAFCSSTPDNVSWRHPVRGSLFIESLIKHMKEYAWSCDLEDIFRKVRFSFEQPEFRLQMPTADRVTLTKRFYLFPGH
# Protocol summary: Fluorescence enzyme assay, IC50 determination, ICE
# Assay type: biochemical
# Assay context: recombinant enzyme, Ac-YVAD-AMC substrate, 30 min preincubation, room temperature; read-out: mICE IC50
Measure: IC50 (nM)

1. CC(C)[C@H](NC(=O)COc1cccc2c(NS(=O)(=O)C(F)(F)F)cccc12)C(=O)N[C@H](C=O)CC(=O)O	127
2. CC(C)[C@H](NC(=O)COc1cccc2ccccc12)C(=O)N[C@H](C=O)CC(=O)O	336

I: CC(C)C[C@H](NC(=O)CNc1cccc2ccccc12)C(=O)N[C@H](C=O)CC(=O)O
II: CC(C)C[C@H](NC(=O)COc1cccc2c1OC(C)(C)C2)C(=O)N[C@H](C=O)CC(=O)O
# query: argmin of IC50 over I and II In your reply, give the label of the chosen option. I

###

# Experimental target: MCH-5 (Homo sapiens, UniProt Q14790)
# Protocol summary: Dissociation constant Ki and irreversible rate constant k3 for irreversible inhibitors, Mch5
# Type: biochemical
# Assay context: continuous assay 60 min, reaction initiated by adding enzyme
Measure: MCH-5 k3/Ki (M⁻¹ s⁻¹)

1) CC(C)[C@H](NC(=O)COc1cccc2ccccc12)C(=O)N[C@@H](CC(=O)O)C(=O)COc1cc(F)c(F)cc1F	670

a: CC(C)[C@H](NC(=O)COc1cccc2ccccc12)C(=O)N[C@@H](CC(=O)O)C(=O)COc1cccc(F)c1
b: CC(C)[C@H](NC(=O)COc1cccc2ccccc12)C(=O)N[C@@H](CC(=O)O)C(=O)COc1ccc(F)c(F)c1
From the recorded data, which exceeds the other in MCH-5 k3/Ki: a or b ? In your reply, give the label of the chosen option. a
(a: 460 M⁻¹ s⁻¹, b: 120 M⁻¹ s⁻¹)
